// IC50 at 48 h lookup, one value per entry
# protocolDescription: MTT cytotoxicity assay against WI-38 cells
# Assay type: cell-based, human
# assayConditions: human, WI-38 lung fibroblast cells, MTT
Write down the numeric answer in µg/mL and omit the unit.

[
  {
    "compound": "Cc1ccc(-c2cc(C(F)(F)F)nn2-c2ccc(S(N)(=O)=O)cc2)cc1 [Celecoxib, reference compound]",
    "IC50 at 48 h [µg/mL]": 93
  }
]

Reported IC50 at 48 h of "COC(=O)CCN1C(=S)N(N=C(C)c2ccccc2O)C(=O)C1=Cc1ccccc1OC(C)=O" : 109

Looking up "COC(=O)CCN1C(=S)N(N=C(C)c2ccccc2O)C(=O)C1=Cc1ccccc1O" , I found its IC50 at 48 h recorded as 88.5

* * *

Listed next: entries and their corresponding inhibition at 10 µg/mL.
# studyTarget: α-glucosidase enzyme (EC3.2.1.20) (Saccharomyces cerevisiae)
# Construct: purchased Sigma-Aldrich
# protocolDescription: biochemical
# assayConditions: read-out: % inhibition of α-glucosidase
Just the number in %, nothing appended.

[
  {
    "compound": "C[C@H]1O[C@H](O[C@H]2[C@H](O)[C@@H](O)[C@@H](O[C@H]3[C@H](O)[C@@H](O)C(O)O[C@@H]3CO)O[C@@H]2CO)[C@H](O)[C@@H](O)[C@@H]1N[C@H]1C=C(CO)[C@@H](O)[C@H](O)[C@H]1O (stereo partly drawn) [Acarbose, reference compound]",
    "studyTarget": "α-glucosidase enzyme (EC3.2.1.20) (Saccharomyces cerevisiae)",
    "inhibition at 10 µg/mL (%)": 58.4
  },
  {
    "compound": "COC(=O)CCN1C(=S)N(/N=C(\\C)c2ccccc2O)C(=O)/C1=C/c1cc(Br)ccc1O",
    "studyTarget": "α-glucosidase enzyme (EC3.2.1.20) (Saccharomyces cerevisiae)",
    "inhibition at 10 µg/mL (%)": 50.3
  }
]

For record "COC(=O)CCN1C(=S)N(N=C(C)c2ccccc2O)C(=O)C1=Cc1ccccc1O" the listed inhibition at 10 µg/mL is 58

* * *

// values below are reported viability at 48 h, 63 µg/mL
# protocolDescription: MTT cytotoxicity assay against WI-38 cells
# Format: cell-based, human
# assayConditions: human, WI-38 lung fibroblast cells, 63 µg/mL (log conc. 1.799)
For clarity, give the value followed by its unit.

Example entries begin here.
[
  {
    "compound": "COC(=O)CCN1C(=S)N(N=C(C)c2ccccc2O)C(=O)C1=Cc1ccccc1O",
    "viability at 48 h, 63 µg/mL": "52.9%"
  },
  {
    "compound": "COC(=O)CCN1C(=S)N(N=C(C)c2ccccc2O)C(=O)C1=Cc1ccccc1OC(C)=O",
    "viability at 48 h, 63 µg/mL": "53.4%"
  }
]

We next turn to a different compound, shown below.
// sample Cc1ccc(-c2cc(C(F)(F)F)nn2-c2ccc(S(N)(=O)=O)cc2)cc1 [Celecoxib, reference compound] , its viability at 48 h, 63 µg/mL was 54.2%

* * *

Each entry below carries its reported inhibition at 1000 µg/mL.
# studyTarget: α-glucosidase enzyme (EC3.2.1.20) (Saccharomyces cerevisiae, UniProt P53341)
# Construct: purchased Sigma-Aldrich
# Sequence (P53341 whole entry): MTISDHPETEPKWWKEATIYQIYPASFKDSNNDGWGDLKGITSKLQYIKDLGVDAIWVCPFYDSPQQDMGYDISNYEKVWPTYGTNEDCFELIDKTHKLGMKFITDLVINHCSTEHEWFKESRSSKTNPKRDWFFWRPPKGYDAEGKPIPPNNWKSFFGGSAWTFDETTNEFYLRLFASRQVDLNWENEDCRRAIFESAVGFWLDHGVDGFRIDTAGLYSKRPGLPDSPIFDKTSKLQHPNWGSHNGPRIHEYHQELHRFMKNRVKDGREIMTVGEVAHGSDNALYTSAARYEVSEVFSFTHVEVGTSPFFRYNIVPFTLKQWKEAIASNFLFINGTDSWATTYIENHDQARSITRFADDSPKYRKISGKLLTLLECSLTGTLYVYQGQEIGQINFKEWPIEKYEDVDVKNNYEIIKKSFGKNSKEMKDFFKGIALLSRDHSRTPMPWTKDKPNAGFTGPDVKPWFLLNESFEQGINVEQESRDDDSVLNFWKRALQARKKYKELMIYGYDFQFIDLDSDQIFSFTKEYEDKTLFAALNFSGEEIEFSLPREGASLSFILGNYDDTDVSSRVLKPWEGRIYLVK
# protocolDescription: biochemical
# assayConditions: read-out: % inhibition of α-glucosidase

[
  {
    "compound": "COC(=O)CCN1C(=S)N(N=C(C)c2ccccc2O)C(=O)C1=Cc1ccccc1O",
    "inhibition at 1000 µg/mL": "86%"
  },
  {
    "compound": "C[C@H]1O[C@H](O[C@H]2[C@H](O)[C@@H](O)[C@@H](O[C@H]3[C@H](O)[C@@H](O)C(O)O[C@@H]3CO)O[C@@H]2CO)[C@H](O)[C@@H](O)[C@@H]1N[C@H]1C=C(CO)[C@@H](O)[C@H](O)[C@H]1O (stereo partly shown) [Acarbose, reference compound]",
    "inhibition at 1000 µg/mL": "88.4%"
  },
  {
    "compound": "COC(=O)CCN1C(=S)N(/N=C(\\C)c2ccccc2O)C(=O)/C1=C/c1cc(Br)ccc1O",
    "inhibition at 1000 µg/mL": "87.4%"
  }
]

Recorded result, "COC(=O)CCN1C(=S)N(N=C(C)c2ccccc2O)C(=O)C1=Cc1ccccc1OC(C)=O" , inhibition at 1000 µg/mL: 82.6%

In plain terms, "COC(=O)CCN1C(=S)N(/N=C(\C)c2ccccc2O)C(=O)/C1=C/c1cc(Br)ccc1OC(C)=O" has a documented inhibition at 1000 µg/mL of 86.5%

Reported inhibition at 1000 µg/mL ( "C/C(=N\N1C(=O)/C(=C/c2cc(Br)ccc2O)NC1=S)c1ccccc1O" ) = 84.7%

Field inhibition at 1000 µg/mL (entry "C/C(=N\N1C(=O)/C(=C/c2ccccc2O)NC1=S)c1ccccc1O" ) reads 83.1%

* * *

readout: melting point (°C)
Supply the numeric figure in °C, leaving out any unit text.

Kindly note the recorded melting point for COC(=O)CCN1C(=S)N(/N=C(\C)c2ccccc2O)C(=O)/C1=C/c1cc(Br)ccc1O [Compound 5b] , which is 192

Record COC(=O)CCN1C(=S)N(/N=C(\C)c2ccccc2O)C(=O)/C1=C/c1cc(Br)ccc1OC(C)=O [Compound 7b] . Reported melting point: 172

The reported melting point of the compound C/C(=N\N1C(=O)/C(=C/c2cc(Br)ccc2O)NC1=S)c1ccccc1O [Compound 4b] was 263

Reported melting point for C/C(=N\N1C(=O)/C(=C/c2ccccc2O)NC1=S)c1ccccc1O [Compound 4a] was 256

* * *

# studyTarget: α-glucosidase enzyme (EC3.2.1.20) (Saccharomyces cerevisiae, UniProt P53341)
# Construct: purchased Sigma-Aldrich
# protocolDescription: biochemical
# assayConditions: read-out: % inhibition of α-glucosidase
readout: inhibition at 1 µg/mL (%)
A number alone suffices; assume %.

[
  {
    "compound": "COC(=O)CCN1C(=S)N(/N=C(\\C)c2ccccc2O)C(=O)/C1=C/c1cc(Br)ccc1O",
    "scaleUnit": "%",
    "inhibition at 1 µg/mL": 27.6
  }
]

So, "COC(=O)CCN1C(=S)N(N=C(C)c2ccccc2O)C(=O)C1=Cc1ccccc1OC(C)=O" ? Its inhibition at 1 µg/mL was 21.8

The compound "C/C(=N\N1C(=O)/C(=C/c2cc(Br)ccc2O)NC1=S)c1ccccc1O" showed inhibition at 1 µg/mL equal to 20.4

# inhibition at 1 µg/mL of "C/C(=N\N1C(=O)/C(=C/c2ccccc2O)NC1=S)c1ccccc1O" = 24.5

Kindly note the recorded inhibition at 1 µg/mL for "COC(=O)CCN1C(=S)N(/N=C(\C)c2ccccc2O)C(=O)/C1=C/c1cc(Br)ccc1OC(C)=O" , which is 28

// inhibition at 1 µg/mL lookup, compound = "COC(=O)CCN1C(=S)N(N=C(C)c2ccccc2O)C(=O)C1=Cc1ccccc1O" , result: 35

# compound C[C@H]1O[C@H](O[C@H]2[C@H](O)[C@@H](O)[C@@H](O[C@H]3[C@H](O)[C@@H](O)C(O)O[C@@H]3CO)O[C@@H]2CO)[C@H](O)[C@@H](O)[C@@H]1N[C@H]1C=C(CO)[C@@H](O)[C@H](O)[C@H]1O (stereo partly shown) [Acarbose, reference compound] ; its inhibition at 1 µg/mL = 31.8

* * *

# studyTarget: α-glucosidase enzyme (EC3.2.1.20) (Saccharomyces cerevisiae, UniProt P53341)
# Construct: purchased Sigma-Aldrich
# protocolDescription: biochemical
# assayConditions: read-out: % inhibition of α-glucosidase
readout: inhibition at 100 µg/mL (%)
The reply should contain only the number, in %.

[
  {
    "molecule": "C/C(=N\\N1C(=O)/C(=C/c2ccccc2O)NC1=S)c1ccccc1O",
    "scaleUnit": "%",
    "measurement": 62.6
  },
  {
    "molecule": "C/C(=N\\N1C(=O)/C(=C/c2cc(Br)ccc2O)NC1=S)c1ccccc1O",
    "scaleUnit": "%",
    "measurement": 58.9
  },
  {
    "molecule": "COC(=O)CCN1C(=S)N(/N=C(\\C)c2ccccc2O)C(=O)/C1=C/c1cc(Br)ccc1O",
    "scaleUnit": "%",
    "measurement": 71.4
  },
  {
    "molecule": "COC(=O)CCN1C(=S)N(N=C(C)c2ccccc2O)C(=O)C1=Cc1ccccc1OC(C)=O",
    "scaleUnit": "%",
    "measurement": 66.1
  },
  {
    "molecule": "C[C@H]1O[C@H](O[C@H]2[C@H](O)[C@@H](O)[C@@H](O[C@H]3[C@H](O)[C@@H](O)C(O)O[C@@H]3CO)O[C@@H]2CO)[C@H](O)[C@@H](O)[C@@H]1N[C@H]1C=C(CO)[C@@H](O)[C@H](O)[C@H]1O (stereo partly shown) [Acarbose, reference compound]",
    "scaleUnit": "%",
    "measurement": 76.9
  }
]

inhibition at 100 µg/mL for "COC(=O)CCN1C(=S)N(/N=C(\C)c2ccccc2O)C(=O)/C1=C/c1cc(Br)ccc1OC(C)=O" is 70.4

For this molecule ( "COC(=O)CCN1C(=S)N(N=C(C)c2ccccc2O)C(=O)C1=Cc1ccccc1O" ), measured inhibition at 100 µg/mL is 75
